# TGI values compiled below
Test system: NCI-H226 lung
ASSAY METHOD TEXT: NCI tumour cell line growth inhibition, 48 h
OUTCOME MEASURE: TGI

>>> df
                                   compound  outcome_measure  value_observed
0  C/C(=C\CC/C=C(\C)CC/C=C(\C)CCC1SC1(C)C)CC/C=C(\C)CCC1OC1(C)C (stereo not given)              TGI        > 100 µM
1  COc1ccc2[nH]c3c(O)c(-c4c(C)cc5c([nH]c6ccc(OC)cc65)c4O)c(C)cc3c2c1              TGI         9.06 µM
2  O=C(NCc1ccccc1)C1C(=O)C(=O)N(Cc2ccccc2)C1=O (stereo not given)              TGI        > 100 µM
3  Cc1ccc(CN2CCN(Cc3ccc(C)o3)C(C)C2)o1 (stereo not given)              TGI        > 100 µM
4              O=S(=O)(CF)OCCCCOS(=O)(=O)CF              TGI        > 100 µM

---

Test system: NCI/ADR-RES ovarian
ASSAY METHOD TEXT: NCI tumour cell line growth inhibition, 48 h
Here the recorded TGI is given for each entry.
OUTCOME MEASURE: TGI

>>> df
                                   molecule  value_observed
0  Cc1cc(S(=O)(=O)NC2=NCC(C)(C)CN2)c(S)cc1Cl        > 100 µM
1  N#CC(C#N)=Cn1c(=S)[nH]c2ccc([N+](=O)[O-])cc21        > 100 µM
2  CC(=O)/C=C/c1ccc(N(CCO)Cc2ccc(C(C)(C)C)cc2)cc1          174 µM
3  C/C(=N\NC(=S)N1CCN(c2ccccn2)CC1)c1cccc2cccnc12         15.4 µM
4  O=C(COc1cccc(/C=C2\Oc3ccc4ccccc4c3C2=O)c1)c1ccc([N+](=O)[O-])cc1        > 100 µM
5  COC(=O)[C@H](C)N(C)C(=O)[C@H](C)N1[C@@H](c2ccccc2)COC1(C)C        > 100 µM
6  O=C(O)CCC(NC(=O)c1ccc(CNc2nc3cc(C(F)(F)F)ccc3nc2C(=O)O)cc1)C(=O)O (stereo not given)        > 100 µM
7    Nn1c(CCCCCCCCc2n[nH]c(=S)n2N)n[nH]c1=S        > 100 µM
8  Cc1cc(OCc2nn(CN3CCN(C)CC3)c(=S)n2/N=C/c2ccc(F)cc2)ccc1Cl         36.1 µM
9  CC1(C)CN(CCNc2nccc(-c3c(-c4cccc(O)c4)nc4sccn34)n2)S(=O)(=O)N1       > 33.2 µM

---

System: NCI-H522 lung
ASSAY METHOD TEXT: NCI tumour cell line growth inhibition, 48 h

MOLECULE	REPORTED RELATION	TGI [µM]
CCN(CC)CCCNc1cc(OC)c(OC)c2cccnc12	=	10.5
Cc1nn(-c2ccccc2)c2nc(C)n(-c3ccc(Br)cc3)c(=O)c12	=	18.6
COC(=O)C1=COC2OC3CC1C2C(C)O3 (centres undefined)	>	100
CC(=O)OC(C)c1cc2c(s1)C(=O)c1ccsc1C2=O (centres undefined)	=	0.354
Cc1ccc2c(c1)CC1(C2)Cc2ccc(C)cc2C1=O (centres undefined)	=	61.3
COC(=O)/C(=N\N)C(C(=O)C(=O)Nc1nc(=S)[nH][nH]1)c1nc2ccc([N+](=O)[O-])cc2[nH]c1=O (centres undefined)	>	100
COc1ccc2nc3ccccc3c(NCc3ccccc3)c2c1	=	4.6
CCN(CC)CCCC(C)Nc1ccnc(/C=C/c2ccc(Cl)cc2)c1 (centres undefined)	=	3.81
CC(=O)[CH-]C(=O)c1ccccc1.CC(=O)[CH-]C(=O)c1ccccc1.CC(=O)[CH-]C(=O)c1ccccc1.[Br-].[Zr+4]	>	100
CC(C)(C)OC(=O)N1Cc2cc3ccccc3nc2C1CO (centres undefined)	>	100
CC(O)C1OC(n2ccc(=O)[nH]c2=O)CC1n1cncn1 (centres undefined)	>	100
CCc1cccc(NC(=O)c2cc(/C=C/c3ccccc3)[nH]c(=S)n2)c1	>	100
CSc1cc(C(C)(C)C)ccc1C(O)c1ccc(C(C)(C)C)cc1SC	=	21.9
COc1ccc(NC(/C(C(=O)C(=O)/C=C(\O)c2ccccc2)=C(\O)c2ccccc2)c2ccc(OC)cc2)cc1 (centres undefined)	=	50.5
CC1(C)CC[C@]2(CO)CC[C@]3(C)C(=CC[C@@H]4[C@@]5(C)CCNCC(C)(C)[C@@H]5CC[C@]43C)[C@@H]2C1	=	7.09
O=C(OCc1ccccc1)n1cccc1	>	100
C=CCN1C(=O)[C@]2(SC1=S)[C@H](c1cccc(Cl)c1)CN(C)[C@]21C(=O)NC2C=CC(Cl)=C[C@H]21 (some centres undefined)	=	20.6
COc1cc(C(=O)OC2CC34CCNC35CC(OC5(OC)C2O)c2cc3c(cc24)OCO3)ccc1O (centres undefined)	>	100
CCC(C(=O)[C@@H](C)[C@@H](O)[C@H](C)[C@@H]1O[C@@H]([C@@H](CC)C(=O)ONC(=O)c2ccccc2)CC[C@@H]1C)[C@H]1O[C@]2(C=CC(=O)[C@]3(CC[C@@](C)([C@H]4CC[C@](O)(CC)[C@H](C)O4)O3)O2)[C@H](C)C[C@@H]1C (some centres undefined)	=	1.4

---

System: MDA-N
ASSAY METHOD TEXT: NCI tumour cell line growth inhibition, 48 h
OUTCOME MEASURE: TGI

                                   compound  outcome_measure  value_observed
0  C[C@H]1S[C@H](c2c(F)cccc2F)n2c1nc1ccccc12              TGI        > 100 µM
1  CCOc1nc2sc3c(c2c(=O)n1CCSSCCn1c(OCC)nc2sc4c(c2c1=O)CCCC4)CCCC3              TGI        > 100 µM
2  S=C1Cc2c(-c3ccccc3)cc(-c3ccc(Cl)cc3)nc2-c2ccccc2N1              TGI         16.2 µM
3  O=C(O)CCC(NC(=O)c1ccc(CNc2nc3cc(C(F)(F)F)ccc3nc2C(=O)O)cc1)C(=O)O (centres undefined)              TGI        > 100 µM

---

Test system: SW-620 colon
ASSAY METHOD TEXT: NCI tumour cell line growth inhibition, 48 h
OUTCOME MEASURE: TGI

In [3]: df
Out[3]:
                                   compound  outcome_measure  value_observed
0  Nc1ncc2c(n1)-c1ccccc1OC2N1CCOCC1 (stereo not given)              TGI        > 100 µM
1  NS(=O)(=O)c1cc(C(=O)O)c(Cl)c([N+](=O)[O-])c1Cl              TGI        > 100 µM
2  CN1N=C(c2ccccc2)c2cc(Cl)ccc2N=C1N/N=C/c1ccc(N(C)C)cc1              TGI        > 100 µM
3  Cc1ccc(O)c(C(c2cc(C)ccc2O)c2cc([N+](=O)[O-])ccc2O)c1              TGI           67 µM
4  Cc1cc(C)c(C(=O)C(C)C(c2ccccc2)c2ccc(Cl)cc2)c(C)c1 (stereo not given)              TGI        > 100 µM

---

Test system: SR leukemia
ASSAY METHOD TEXT: NCI tumour cell line growth inhibition, 48 h
OUTCOME MEASURE: TGI

                                    molecule  value_observed
 0  CC(=O)O[C@H]1CC[C@]2(C)C3C(=O)C[C@]4(C)[C@@H](C(C)CCC(=O)O)CC[C@@]4(C)[C@@H]3CC[C@H]2C1(C)C (some centres not stated)         > 50 µM
 1  Cc1nn(C(=O)c2ccc(Cl)cc2)c2c1C(c1ccc(Cl)cc1)SC(N)=N2 (configuration not stated)         > 10 µM
 2  C/C(=N\NC(=S)N1CCN(c2ccccn2)CC1)c1cccc2cccnc12       > 38.7 µM
 3  COc1nc2c(c(=O)[nH]1)N=C(c1ccc(Cl)cc1)CC(c1ccccc1)N2 (configuration not stated)        > 100 µM
 4  C=CCN1C(=O)CS/C1=N\NC(=O)CSc1nc2ccccc2c(=O)n1CC        > 100 µM
 5  N[C@H]1CCN(c2c(F)cc3c(=O)c(C(=O)O)cn4c3c2Oc2c-4ccc3c2ccc2ccccc23)C1        > 100 µM
 6           O=C1NC(N2CCCCC2)=N/C1=C\c1ccco1        > 100 µM
 7                  Nc1ncnc2c1ncn2CCCCC(=O)O        > 100 µM
 8                   C1=Cc2cccc3occ(c23)C=C1           43 µM
 9  CC(C)=CCOc1ccc(-c2coc3cc4c(c(O)c3c2=O)C=CC(C)(C)O4)cc1        > 100 µM
10  CCc1ccccc1NC(=O)C(=O)C(C#N)c1c(Cl)cccc1Cl (configuration not stated)        > 100 µM
11  O=C(c1ccc(Nc2nccc(NCCCCNc3ccnc4cc(Cl)ccc34)n2)cc1)N1CCCCC1          1.5 µM
12  O=C(Nc1ccc(Cl)cc1)N1CCN(c2ccc3nncn3n2)CC1        > 100 µM
13  CN1N=C(c2ccccc2)c2cc(Cl)ccc2N=C1N/N=C/c1ccc(N(C)C)cc1        > 100 µM
14  CCN1C/C(=C\c2ccc(Cl)cc2)c2[nH]c(=O)c(C#N)c(-c3ccc(Cl)cc3)c2C1        > 100 µM
15  C(=C\c1ccc(OCC2CO2)cc1)/C1=NCOC1 (configuration not stated)         11.9 µM
16                              CCSCCCC(=O)O        > 100 µM
17  CC(C)(C)OC1=C(OC(C)(C)C)C(O)(c2ccc(Cl)cc2)C1=O (configuration not stated)        > 100 µM
18  Cc1cc(S(=O)(=O)NC2=NCC(C)(C)CN2)c(S)cc1Cl        > 100 µM
19          O=C1c2c(O)cccc2Cc2cc(CO)cc(O)c21         12.1 µM
20  COc1cc2cnc3c4cc(OC)c(OC(C)C)cc4ccc3c2cc1OC        > 100 µM
21  COC(=O)C(C#N)C1NC(=O)c2ccccc21 (configuration not stated)        > 100 µM
